Target: GLP-1R (Homo sapiens)
Test: GLP-1R activation cAMP assay (Assay 1 or Assay 2)
Details: cAMP increase in CHO cells stably expressing GLP-1R; compounds run on one of the two cAMP assays
experimental.readout: EC50 (nM)
Respond numerically; units are nM and should not be typed.

smiles.input | measured.on | units.symbol | EC50
Cc1c(C#Cc2ccc(COc3cccc(-c4cc(F)c(Cc5nc6ccc(C(=O)O)cc6n5C[C@@H]5CCO5)cc4F)n3)c(F)c2)cnn1C | GLP-1R (Homo sapiens) | nM | 0.929
Cc1ncc(C#Cc2ccc(COc3cccc(-c4cc(F)c(Cc5nc6ccc(C(=O)O)cc6n5C[C@@H]5CCO5)cc4F)n3)c(F)c2)n1C | GLP-1R (Homo sapiens) | nM | 0.29
Cn1ccc(-c2cnc(COc3cccc(-c4cc(F)c(Cc5nc6ccc(C(=O)O)cc6n5C[C@@H]5CCO5)cc4F)n3)s2)n1 | GLP-1R (Homo sapiens) | nM | 0.23

Return reported EC50; argument: CC(F)(F)c1cnc(COc2nc(-c3cc(F)c(Cc4nc5ccc(C(=O)O)cc5n4[C@@H]4COCC4(C)C)cc3F)ccc2F)s1
0.058

And then Cn1cc(-c2cnc(COc3nc(-c4cc(F)c(Cc5nc6c(F)cc(C(=O)O)cc6n5C[C@@H]5CCO5)cc4F)ccc3F)s2)cn1 , what is it?
0.03

Please give the result for COc1nnc(COc2cccc(-c3cc(F)c(Cc4nc5ccc(C(=O)O)cc5n4[C@@H]4COCC4(C)C)c(F)c3F)n2)s1 too.
0.144

* * *

Biological target: GLP-1R (Homo sapiens, UniProt P43220)
Sequence (P43220 24-463): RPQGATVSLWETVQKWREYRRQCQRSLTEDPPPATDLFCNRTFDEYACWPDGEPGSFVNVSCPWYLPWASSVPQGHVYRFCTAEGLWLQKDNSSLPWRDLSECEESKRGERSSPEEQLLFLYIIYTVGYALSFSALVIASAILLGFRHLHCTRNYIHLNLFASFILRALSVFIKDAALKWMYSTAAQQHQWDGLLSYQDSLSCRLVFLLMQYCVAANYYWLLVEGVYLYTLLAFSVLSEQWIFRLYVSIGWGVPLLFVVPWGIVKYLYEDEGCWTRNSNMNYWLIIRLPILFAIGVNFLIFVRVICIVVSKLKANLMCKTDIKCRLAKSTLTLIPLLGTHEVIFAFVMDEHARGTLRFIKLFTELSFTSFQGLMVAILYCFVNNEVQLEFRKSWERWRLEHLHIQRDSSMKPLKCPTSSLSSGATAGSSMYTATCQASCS
Assay: GLP-1R activation cAMP assay (Assay 1 or Assay 2)
Settings: cAMP increase in CHO cells stably expressing GLP-1R; compounds run on one of the two cAMP assays
Recorded pEC50 for the following compounds
Scale explanation: pEC50 corresponds to minus log10 of a concentration expressed in moles per litre.

The examples below pair each entry with its known result.
compound | pEC50
Cn1cc(-c2cnc(COc3nc(-c4cc(F)c(Cc5nc6ccc(C(=O)O)cc6n5C[C@@H]5CCO5)cc4F)ccc3F)s2)cn1 [Example 99] | 9.85
COCCn1c(Cc2cc(F)c(-c3cccc(OCc4ccc(-c5cnn(C6CC6)c5)cc4F)n3)cc2F)nc2ccc(C(=O)O)cc21 [Example 225] | 9.15
CN(C)C(=O)c1ccc(COc2cccc(-c3cc(F)c(Cc4nc5ccc(C(=O)O)cc5n4C[C@@H]4CCO4)cc3F)n2)cn1 [Example 44] | 7.12
N#CCn1ccc(COc2cccc(-c3cc(F)c(Cc4nc5ccc(C(=O)O)cc5n4C[C@@H]4CCO4)cc3F)n2)n1 [Example 238] | 8.06
O=C(O)c1cc(F)c2nc(Cc3cc(F)c(-c4cccc(OCc5ccc(C#Cc6cnc(N7CC8CCC(C7)N8C7COC7)nc6)cc5F)n4)cc3F)n(C[C@@H]3CCO3)c2c1 [Example 152] | 9.17

Next compound, pEC50 to be filled in.
Which pEC50 is reported for this compound? COc1nnc(COc2cccc(-c3cc(F)c(Cc4nc5ccc(C(=O)O)cc5n4[C@@H]4COCC4(C)C)cc3C)n2)s1 [Example 261]
10.36

* * *

A collection of compounds and their measured pEC50
Target: GLP-1R (Homo sapiens, UniProt P43220)
Assay: GLP-1R activation cAMP assay (Assay 1 or Assay 2)
Conditions: cAMP increase in CHO cells stably expressing GLP-1R; compounds run on one of the two cAMP assays
In textbook form, pEC50 equals minus log to base ten of the concentration in mol/L.

Lab note: need pEC50 with GLP-1R (Homo sapiens, UniProt P43220) for entry COCCn1c(Cc2cc(F)c(-c3cccc(OCc4ccc(C(=O)NC5CC5)cc4)n3)cc2F)nc2ccc(C(=O)O)cc21 , please look it up.
7.44

Same question for COc1nnc(COc2nc(-c3cc(Cl)c(Cc4nc5c(F)cc(C(=O)O)cc5n4C[C@@H]4CCO4)cc3C)ccc2F)s1 please.
8.46

Please do the same for N#CCNC(=O)c1ccc(COc2cccc(-c3cc(F)c(Cc4nc5ccc(C(=O)O)cc5n4C[C@@H]4CCO4)cc3F)n2)cn1 as well.
9.96

Another compound to check: O=C(O)c1ccc2nc(Cc3cc(F)c(-c4cccc(OCc5ncc(-c6cccnc6)s5)n4)cc3F)n(C[C@@H]3CCO3)c2c1
9.74

Try NC(=O)c1nc(COc2cccc(-c3cc(F)c(Cc4nc5ccc(C(=O)O)cc5n4C[C@@H]4CCO4)cc3F)n2)cs1 next.
9.04

Quick one: Cc1nnc(COc2cccc(-c3cc(F)c(Cc4nc5ccc(C(=O)O)cc5n4C[C@@H]4CCO4)cc3F)n2)s1
9.17

Another: Cn1cncc1C#Cc1cnc(COc2cccc(-c3cc(F)c(Cc4nc5ccc(C(=O)O)cc5n4C[C@@H]4CCO4)cc3F)n2)c(F)c1
9.74

For Cc1cc(Cc2nc3c(F)cc(C(=O)O)cc3n2C[C@@H]2CCO2)c(F)cc1-c1cccc(OCc2cnc(-c3cnn(C4CC4)c3)cc2Cl)n1 then?
9.15

Queued: Cn1cc(NC(=O)c2cc(Cl)c(COc3cccc(-c4cc(F)c(Cc5nc6ccc(C(=O)O)cc6n5C[C@@H]5CCO5)cc4F)n3)cn2)cn1
9.77

Now give it for O=C(O)c1ccc2nc(Cc3cc(F)c(-c4cccc(OCc5ncc(-c6cnco6)s5)n4)cc3F)n(C[C@@H]3CCO3)c2c1 too.
10.22

Same read-out for COc1nnc(COc2nc(-c3cc(F)c(Cc4nc5ccc(C(=O)O)cc5n4CC4(CF)CC4)c(F)c3F)ccc2F)s1 ?
9.15

// query: O=C(O)c1ccc2nc(Cc3cc(F)c(-c4cccc(OCc5ccc(-n6cnc(C7CC7)n6)nc5)n4)cc3F)n(C[C@@H]3CCO3)c2c1
9.29

Please give the result for O=C(O)c1cc(F)c2nc(Cc3c(F)cc(-c4ccnc(OCc5nc(C(F)(F)F)cs5)n4)c(F)c3F)n(C[C@@H]3CCO3)c2c1 too.
9.32

* * *

Target: GLP-1R (Homo sapiens)
Experiment: GLP-1R activation cAMP assay (Assay 1 or Assay 2)
Conditions: cAMP increase in CHO cells stably expressing GLP-1R; compounds run on one of the two cAMP assays
experimental.readout: pEC50
Just the number, please; pEC50 means minus log10 of the concentration in mol/L.

Given the compound Cc1ncc(C#Cc2ccc(COc3cccc(-c4cc(F)c(Cc5nc6ccc(C(=O)O)cc6n5C[C@@H]5CCO5)cc4F)n3)c(F)c2)cn1 , what is its reported pEC50?
10.05

And N#CCCNC(=O)c1ccc(COc2cccc(-c3cc(F)c(Cc4nc5ccc(C(=O)O)cc5n4C[C@@H]4CCO4)cc3F)n2)cn1 ?
9.43

Param item: O=C(O)c1ccc2nc(Cc3cc(F)c(-c4cccc(OCc5ccc(-c6cnc(C7CC7)o6)cc5F)n4)cc3F)n(C[C@@H]3CCO3)c2c1
9.70

* * *

Molecular target: GLP-1R (Homo sapiens)
Test: GLP-1R activation cAMP assay (Assay 1 or Assay 2)
Details: cAMP increase in CHO cells stably expressing GLP-1R; compounds run on one of the two cAMP assays
Description: GLP-1R ACTIVATION—cAMP Assay 1 GLP-1R activation by compounds of the present disclosure was quantified by measuring cAMP increase in CHO cells stably expressing GLP-1R (MultiSpan product #C1267-1a). […] The tested GLP-1 compound was added to the cells in a 10-point dose response followed by a 30-minute incubation at 37° C., 5% CO2. cAMP concentration increase was then detected using Cisbio's cAMP Gs Dynamic Kit (product #62AM4PEC) according to the manufacturer's protocol. […]
experimental.readout: pEC50
Formally, pEC50 is defined as -log10 of the concentration c, with c in mol/L.

Query: pEC50; subject: CCOc1nnc(COc2cccc(-c3cc(F)c(Cc4nc5ccc(C(=O)O)cc5n4[C@@H]4COCC4(C)C)cc3F)n2)s1 [Example 430]
10.41

What about this molecule? Cn1cc(C#Cc2cc(F)c(COc3cccc(-c4cc(F)c(Cc5nc6ccc(C(=O)O)cc6n5C[C@@H]5CCO5)cc4F)n3)s2)cn1 [Example 117]
9.55

Can you handle O=C(O)c1ccc2nc(Cc3cc(F)c(-c4cccc(OCc5ccn(C(F)F)n5)n4)cc3F)n(C[C@@H]3CCO3)c2c1 [Example 9] next?
9.02

// repeat for Cn1cc(-n2ccc(COc3cccc(-c4cc(F)c(Cc5nc6ccc(C(=O)O)cc6n5C[C@@H]5CCO5)cc4F)n3)n2)cn1 [Example 82] and report
8.26

Okay, and N#CC1(NC(=O)c2cc(Cl)c(COc3cccc(-c4cc(F)c(Cc5nc6ccc(C(=O)O)cc6n5C[C@@H]5CCO5)cc4F)n3)cn2)COC1 [Example 187] ?
9.92

Same question, COc1nnc(COc2cccc(-c3ccc(Cc4nc5ccc(C(=O)O)cc5n4[C@@H]4COCC4(C)C)cc3F)n2)s1 [Example 400] this time
9.39

Please answer likewise for Cn1cc(C#Cc2cnc(COc3cccc(-c4cc(F)c(Cc5nc6ccc(C(=O)O)cc6n5C[C@@H]5CCO5)cc4F)n3)nc2)cn1 [Example 154]
9.28

Please do the same for O=C(O)c1ccc2nc(Cc3cc(F)c(-c4cccc(OCc5ccc(C#Cc6nccs6)cc5F)n4)cc3F)n(C[C@@H]3CCO3)c2c1 [Example 141] as well.
9.48

Same lookup for COc1nnc(COc2nc(-c3cc(F)c(Cc4nc5ccc(C(=O)O)cc5n4[C@@H]4COCC4(C)C)c(F)c3F)ccc2F)s1 [Example 270] , please.
9.72

Then what about the molecule O=C(O)c1ccc2nc(Cc3cc(F)c(-c4cccc(OCc5nnc(C(F)(F)F)s5)n4)cc3F)n(C[C@@H]3CCO3)c2c1 [Example 25] ?
9.28

And the next one, O=C(O)c1ccc2nc(Cc3cc(F)c(-c4cccc(OCc5ncc(-c6ccc(C(F)(F)F)cc6)s5)n4)cc3F)n(C[C@H]3CCO3)c2c1 [Example 382] ?
8.90

Queued: O=C(O)c1ccc2nc(Cc3cc(F)c(-c4cccc(OCc5nncs5)n4)cc3F)n(C[C@@H]3CCO3)c2c1 [Example 59]
8.62

Also N#CC1(NC(=O)c2cc(Cl)c(COc3cccc(-c4cc(F)c(Cc5nc6c(F)cc(C(=O)O)cc6n5C[C@@H]5CCO5)cc4F)n3)cn2)CC1 [Example 185] , if possible.
10.10
